- Assayed Target: T1, human CD25 (NP_000408.1) (Met 1-Cys 213) C-terminally fused with 6-histidine tag (human, UniProt P01589 22-213)
- T1 construct: range 1-213; Expressed in CHO-K1 cells; also called human CD25-his
- T1 sequence: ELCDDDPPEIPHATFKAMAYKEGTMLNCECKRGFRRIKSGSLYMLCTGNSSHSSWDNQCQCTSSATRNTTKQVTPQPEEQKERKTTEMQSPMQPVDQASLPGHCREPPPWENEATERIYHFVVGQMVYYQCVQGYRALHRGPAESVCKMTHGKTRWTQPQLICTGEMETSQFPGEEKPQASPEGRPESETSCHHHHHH
- Assay Remarks: SPR (BIAcore X100), human CD25-his captured by anti-histidine antibody, antibody as analyte, 1:1 model
Test Readout: pKd
// field semantics: pKd = negative decimal log of concentration (mol/L)

humanized antibody 2046-36H1L1 (antibody, human IgG1, kappa, V domains shown) VH: EIQLVQSGSELKKPGASVKVSCKASGYTFTTAGMQWVRQAPGQGLEWMGWINTHSGVPKYAEDFKGRFVFSLDTSVSTAYLQISSLKAEDTAVYYCASDYAFGYWGQGTLVTVSS VL: DVVMTQSPLSLPVTLGQPASISCKSSQSLLYSNGKTYLYWLQQRPGQSPRRLIYLVSKLDSGVPDRFSGSGSGTDFTLKISRVEAEDLGVYYCVQGTHFPYTFGQGTKLEIKR	9.00
humanized antibody 2046-18H1L1-m2 (antibody, human IgG1, kappa, V domains shown) VH: EVQLQESGPGLVKPSQTLSLTCTVSGYSITSDYAWNWIRQPPGKGLEWIGYISYSGITIYNPSLKSRVTISRDTSKNQFSLKLSSVTAADTAVYYCARWLLQIYYAMDYWGQGTLVTVSS VL: EIVLTQSPGTLSLSPGERATLSCSSSQSLVHSNGNTYLHWYQQKPGQAPRLLIYKVSNRFSGIPDRFSGSGSGTDFTLTISRLEPEDFAVYYCSQSTHVPLTFGQGTKLEIKR	8.61
humanized antibody 2047-10H2L2 (antibody, human IgG1, kappa, V domains shown) VH: EVQLVQSGAEVKKPGATVKISCKGSGYTFTDYAMHWVQQAPGKGLEWMGVISTYSGNTNYNQKFKGRVTITVDKSTSTAYMELSSLRSEDTAVYYCARSYGNYPFDYWGQGTLVTVSS VL: DIQMTQSPSSLSASVGDRVTITCKASQDITSYLSWFQQKPGKAPKTLIYRANRLVDGVPSRFSGSGSGQDYTLTISSLQPEDMATYYCLQYDEFPYTFGQGTKLEIKR	8.35

// next item, pKd requested
What value of measured pKd is listed for humanized antibody 2046-111H1L1-m2 (antibody, human IgG1, kappa, V domains shown) VH: EVQLQESGPGLVKPSQTLSLTCTVSGHSITSDYAWNWIRQPPGKGLEWIGYISYSGSTIYNPSLKSRVTISRDTSKNQFSLKLSSVTAADTAVYYCARWLLQNYYAMDYWGQGTLVTVSS VL: EIVLTQSPGTLSLSPGERATLSCRSSQSLVHSNGNTYLHWYQQKPGQAPRLLIYKVSNRFSGIPDRFSGSGSGTDFTLTISRLEPEDFAVYYCSQSTHVPLTFGQGTKLEIKR ?
8.20
